Taken from ChEMBL document CHEMBL1201862.

Listed molecules paired with reported GI50
- System: EKVX
- protocol: NCI tumour cell line growth inhibition, 48 h
Active and inactive are the calls of the source. Rule as the data show it: active = GI50 up to about 1.1 µM and inactive = higher.

Answered cases to consult:
* COc1cc(C(=O)NNC(=O)c2cc(Br)ccc2NC(=O)c2cccs2)cc(OC)c1OC | 6.65 µM (inactive)
* CC1=CC2CC(C)=C(CC[C@]3(C)CC[C@H]([C@@H](C)C(=O)O)OO3)C(C)(C)C2CC1 (stereo not given in full) | 1.91 µM (inactive)

Specify reported GI50 for the molecule shown: COc1ccc(C(=O)N(Cc2cccnc2)C(=S)N(Cc2cccnc2)C(=O)c2ccc(OC)cc2)cc1
> 100 µM (inactive)

Specify reported GI50 for the molecule shown: CCOC(=O)N/N=C(/N)c1cccc([N+](=O)[O-])c1
> 100 µM (inactive)

Specify reported GI50 for the molecule shown: COC1(C(C)(C)C)C=C(C(C)(C)C)P(=O)(O)O1 (stereo not given)
> 100 µM (inactive)

Specify reported GI50 for the molecule shown: CC(=O)OC1=CC2=CC[C@H]3[C@@H]4CCC(=O)[C@@]4(C)CC(=O)[C@]3(S)[C@@]2(C)CC1
> 100 µM (inactive)

Specify reported GI50 for the molecule shown: COc1ccc(NC(=O)CC/C(CC(=O)C(C)(C)C)=N\NC(=O)C(=O)NN)cc1
> 100 µM (inactive)

Specify reported GI50 for the molecule shown: NCCSS(=O)(=O)CCN
> 100 µM (inactive)

Specify reported GI50 for the molecule shown: Cc1n[n+]([O-])c(C)cc1[N+](=O)[O-]
23.5 µM (inactive)

Specify reported GI50 for the molecule shown: O=C(Nc1cc(Cl)cc(Cl)c1)/C(Cc1nc2ccccc2nc1O)=N/NC(=O)c1ccncc1
> 100 µM (inactive)

---

- Tested on: NCI-H226
- protocol: NCI tumour cell line growth inhibition, 48 h
Active and inactive are the calls of the source. Cut-off read from the data, not from the text of the source: active = GI50 up to about 1.1 µM and inactive = higher.
measured.quantity: GI50

- O=c1[nH]cnc2c(COCCO)c[nH]c12: > 100 µM (inactive)

Lab note: record GI50 of COC1CC(C)C(OC)c2cc(O)cc(c2O)NC(=O)/C(C)=C/C=C\C(C)C(OC(N)=O)/C(C)=C\C(C)C1OC (stereo not given) tested on NCI-H226.
7.35 µM (inactive)

Lab note: record GI50 of C[C@]1(O)CC(=O)c2c(c(-c3ccc4cc5c(c(O)c4c3O)C(=O)C[C@@](C)(O)C5)c3cccc(O)c3c2O)C1 tested on NCI-H226.
3.85 µM (inactive)

Lab note: record GI50 of COc1cc(CCCC(O)COc2cccc3c2C2(O)CCCCCC32)cc(OC)c1 (stereo not given) tested on NCI-H226.
16.2 µM (inactive)

---

- System: NCI-H23
- protocol: NCI tumour cell line growth inhibition, 48 h
Calls of active or inactive are those of the source. No stated cut-off is given here; in the data, active = GI50 up to about 1.1 µM and inactive = higher.
measured.quantity: GI50

Answered cases to consult:
• COC(=O)C1=C(O)C(C(=O)OC)[C@]2(O)[C@H](C(=O)OC)[C@H]1C[C@@H](c1cccc(OC)c1)[C@H]2C(=O)OC (stereo not given in full) = 30.4 µM (inactive)
• OC(CC1SCCCS1)c1ccccc1 (stereo not given) = > 100 µM (inactive)
• O[C@H]1[C@H](O)[C@H](O)CN2CCC[C@@H](O)[C@H]12 = > 100 µM (inactive)

Lab note: record GI50 of O=c1nc(N2CCN(c3ccccc3)CC2)ccn1C1OC(CO)C(O)C1O (stereo not given) tested on NCI-H23.
55.3 µM (inactive)

Lab note: record GI50 of COc1cc2c(cn1)[nH]c1ccccc12 tested on NCI-H23.
> 100 µM (inactive)
